# Tested On: Cannabinoid receptor 1 (Homo sapiens)
# Sequence (P21554 whole entry): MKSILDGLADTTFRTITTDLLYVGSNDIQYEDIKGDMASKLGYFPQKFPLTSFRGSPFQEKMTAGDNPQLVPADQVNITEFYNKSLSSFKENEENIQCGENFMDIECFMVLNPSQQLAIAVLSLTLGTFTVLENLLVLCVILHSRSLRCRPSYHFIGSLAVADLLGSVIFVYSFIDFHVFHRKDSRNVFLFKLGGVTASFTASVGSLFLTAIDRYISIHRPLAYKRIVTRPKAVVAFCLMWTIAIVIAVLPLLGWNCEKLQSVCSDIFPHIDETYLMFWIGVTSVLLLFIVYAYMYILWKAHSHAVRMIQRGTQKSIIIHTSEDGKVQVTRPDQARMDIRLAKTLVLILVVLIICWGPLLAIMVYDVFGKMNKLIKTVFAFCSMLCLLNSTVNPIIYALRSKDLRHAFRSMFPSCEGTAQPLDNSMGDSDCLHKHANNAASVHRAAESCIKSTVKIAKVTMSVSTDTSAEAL
# Assay Summary: Displacement of [3H]CP-55940 from human recombinant CB1 receptor expressed in HEK cells
# Assay type: cell-based, HEK293
# Condition Details: read-out: Ki
pKi: −log10 of the molar value.
Examples of molecules with documented pKi follow.

Smiles String | Value Qualifier | pKi
CC1(C)C(C(=O)c2cn(CC3CCOCC3)c3cc(O)ccc23)C1(C)C | < | 5.52
CC1(C)C(C(=O)c2cn(CC3CCOCC3)c3c(F)c(F)c(F)c(F)c23)C1(C)C | = | 7.18
CC1(C)C(C(=O)c2cn(CC3CCOCC3)c3cccc(OCc4ccccc4)c23)C1(C)C | < | 5.00
COc1cccc2c1c(C(=O)C1C(C)(C)C1(C)C)cn2CC1CCOCC1 | = | 5.96
CC1(C)C(C(=O)c2cn(CC3CCOCC3)c3ccc(CN)cc23)C1(C)C | < | 5.00
CC1(C)C(C(=O)c2cn(CC3CCOCC3)c3ccc(OCc4ccccc4)cc23)C1(C)C | = | 6.62
CC1(C)C(C(=O)c2cn(CC3CCOCC3)c3cc(CN)ccc23)C1(C)C | < | 6.00
Cc1c(C(=O)C2C(C)(C)C2(C)C)c2ccccc2n1CCN1CCOCC1 | < | 5.00
CC1(C)C(C(=O)c2cn(CC3CCOCC3)c3ccc(F)cc23)C1(C)C | = | 5.92
CC1(C)C(C(=O)c2cn(CC3CCOCC3)c3cc(-c4ccccc4)ccc23)C1(C)C | = | 6.64
